Target: 5-HT1A (Homo sapiens, UniProt P08908)
Sequence (P08908 whole entry, species assumed): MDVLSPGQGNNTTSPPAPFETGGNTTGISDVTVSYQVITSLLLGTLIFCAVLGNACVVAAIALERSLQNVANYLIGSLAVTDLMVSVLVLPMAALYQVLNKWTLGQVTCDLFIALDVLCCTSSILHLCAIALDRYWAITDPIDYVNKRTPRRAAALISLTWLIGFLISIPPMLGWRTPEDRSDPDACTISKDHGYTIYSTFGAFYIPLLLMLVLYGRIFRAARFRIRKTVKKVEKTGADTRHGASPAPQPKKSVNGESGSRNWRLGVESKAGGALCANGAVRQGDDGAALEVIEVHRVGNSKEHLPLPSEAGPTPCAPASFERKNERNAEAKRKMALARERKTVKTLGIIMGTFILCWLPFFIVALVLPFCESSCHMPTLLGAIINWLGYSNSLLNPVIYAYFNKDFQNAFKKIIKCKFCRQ
Experiment: 5-HT1A receptor affinity (Ki), Table 1
Format: binding
Details: 5-HT1A (Ki)
RECORDED_METRIC: pKi
One number for each entry, as −log10 of the molar value.

> print(dat)
                                 compound  measured.value
1  Cl.O=C(Nc1cccc(N2CCNCC2)c1)C1CC1 [HCl]            8.34

Let us examine a further case.
Provide pKi, recorded with 5-HT1A (Homo sapiens, UniProt P08908), of CC(=O)Nc1cccc(N2CCNCC2)c1.Cl [HCl]
8.54

###

Please go through the items and note down their α2 % inhibition.
System: α2
Test: α2 cross-reactivity (% inhibition / Ki), Table 1
Type: binding
One number for each entry, in %.

Report α2 % inhibition for each item below.
1. Cc1ccc(S(=O)(=O)NCCCCN2CCN(c3cccc([N+](=O)[O-])c3)CC2)cc1
2. CC(=O)Nc1cccc(N2CCNCC2)c1.Cl
3. Cc1ccc(S(=O)(=O)NCCCCN2CCN(c3cccc(NC(=O)C(C)C)c3)CC2)cc1
4. O=S(=O)(CC1CCCCC1)NCCCCN1CCN(c2ccccn2)CC1
5. CN(C)c1cccc(N2CCN(CC3CCN(S(=O)(=O)c4ccc(F)cc4)CC3)CC2)c1

14
35
12
51
0

Would you be so kind as to report α2 % inhibition for each listed record?
1. CC(=O)Nc1cccc(N2CCN(CCCCNS(=O)(=O)C3CCCCC3)CC2)c1
2. CCC(=O)Nc1cccc(N2CCN(CCCCNS(=O)(=O)c3ccc(C)cc3)CC2)c1

1. 12
2. 31

###

Test system: α2
Assay: α2 cross-reactivity (% inhibition / Ki), Table 1
Format: binding
RECORDED_METRIC: α2 % inhibition

Consider the reported α2 % inhibition for these compounds:
> print(dat)
                            chemical.string  target.under.test  measured.value
1  Cc1ccc(S(=O)(=O)NCCCCN2CCN(c3cccc(NC(=O)C4CC4)c3)CC2)cc1                 α2             15%
2  O=S(=O)(c1ccc(F)cc1)N1CCC(CN2CCN(c3ccccn3)CC2)CC1                 α2             68%
3  CC(=O)Nc1cccc(N2CCN(CCCCNS(=O)(=O)c3ccc(F)cc3)CC2)c1                 α2            <10%
4  O=C(Nc1cccc(N2CCN(CCCCNS(=O)(=O)CC3CCCCC3)CC2)c1)C1CC1                 α2            <10%

Give reported α2 % inhibition value for Cl.O=C(Nc1cccc(N2CCNCC2)c1)C1CC1
14%

###

Tested on: α1
Test: α1 cross-reactivity (% inhibition / Ki), Table 1
Assay type: binding
α1 % inhibition below 60% gives NOT MET; α1 % inhibition at or above it gives MET.

> print(dat)
                            chemical.string  target.under.test  category.label
1  Cc1ccc(S(=O)(=O)NCCCCN2CCN(c3cccc([N+](=O)[O-])c3)CC2)cc1                 α1         NOT MET
2  CC(=O)Nc1cccc(N2CCN(CCCCN(C)S(=O)(=O)CC3CCCCC3)CC2)c1                 α1         NOT MET
3  CC(=O)Nc1cccc(N2CCN(CC3CCN(S(=O)(=O)C(C)C)CC3)CC2)c1                 α1         NOT MET
4  CC(=O)Nc1cccc(N2CCN(CCCCNS(=O)(=O)C(C)C)CC2)c1                 α1         NOT MET
5  CCS(=O)(=O)Nc1cccc(N2CCN(CCCCNS(=O)(=O)c3ccc(C)cc3)CC2)c1                 α1         NOT MET
6  CN(C)c1cccc(N2CCN(CCCCNS(=O)(=O)CC3CCCCC3)CC2)c1                 α1             MET

Evaluate CCC(=O)Nc1cccc(N2CCN(CCCCNS(=O)(=O)c3ccc(C)cc3)CC2)c1 : α1 % inhibition at minimum 60%?
NOT MET

Please check the record CN(C)c1cccc(N2CCN(CC3CCN(S(=O)(=O)c4ccc(F)cc4)CC3)CC2)c1 and state if its α1 % inhibition is at or above 60%.
MET

Form field: α1 % inhibition at least 60%? Entry: CC(=O)Nc1cccc(N2CCN(CC3CCN(S(=O)(=O)CC4CCCCC4)CC3)CC2)c1
NOT MET

API: above_or_equal(metric=α1 % inhibition, cutoff=60%) for item Cl.O=C(Nc1cccc(N2CCNCC2)c1)C1CC1
NOT MET
